# testSystem: UniProtKB P07333
# Sequence (P07333 538-972): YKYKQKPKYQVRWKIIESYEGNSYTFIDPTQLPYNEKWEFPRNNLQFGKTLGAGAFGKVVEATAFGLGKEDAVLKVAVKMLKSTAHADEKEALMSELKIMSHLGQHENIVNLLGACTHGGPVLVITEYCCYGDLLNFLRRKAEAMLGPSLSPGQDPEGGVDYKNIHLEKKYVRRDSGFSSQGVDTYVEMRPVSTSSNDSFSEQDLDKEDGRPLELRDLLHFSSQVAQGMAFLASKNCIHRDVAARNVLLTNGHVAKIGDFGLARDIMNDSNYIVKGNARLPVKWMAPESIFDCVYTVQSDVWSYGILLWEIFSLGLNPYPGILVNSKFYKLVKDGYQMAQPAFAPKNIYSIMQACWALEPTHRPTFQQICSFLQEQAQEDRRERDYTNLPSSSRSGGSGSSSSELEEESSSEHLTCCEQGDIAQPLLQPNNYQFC
measuredEndpoint: IC50 (nM)
Reply with just the number (in nM).

Input line: Answer with the recorded IC50 for the molecule listed here: Cc1ccc(NC(=O)c2ccc(CN3CCN(C)CC3)cc2)cc1Nc1nc(-c2cccnc2)cs1
Output line: 90
